The origin of these recorded values is ChEMBL document CHEMBL1141898.

EXPERIMENTAL_TARGET: Neuronal acetylcholine receptor; alpha3/beta4 (Rattus norvegicus, UniProt P04757+P12392)
Sequence (P04757 whole entry): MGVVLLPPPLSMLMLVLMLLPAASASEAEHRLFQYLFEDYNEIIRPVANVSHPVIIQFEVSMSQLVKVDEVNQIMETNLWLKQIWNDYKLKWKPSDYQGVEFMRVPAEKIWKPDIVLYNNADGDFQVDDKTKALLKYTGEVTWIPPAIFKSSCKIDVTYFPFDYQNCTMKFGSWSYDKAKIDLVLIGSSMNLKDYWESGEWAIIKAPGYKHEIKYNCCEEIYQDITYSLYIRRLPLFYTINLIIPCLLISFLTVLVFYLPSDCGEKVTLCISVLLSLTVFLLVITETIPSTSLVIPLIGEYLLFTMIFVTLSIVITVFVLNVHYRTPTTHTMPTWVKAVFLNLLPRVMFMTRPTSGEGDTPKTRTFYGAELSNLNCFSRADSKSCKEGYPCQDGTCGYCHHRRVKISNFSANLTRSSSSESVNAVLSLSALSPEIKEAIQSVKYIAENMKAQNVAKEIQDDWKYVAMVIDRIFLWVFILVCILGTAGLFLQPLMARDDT
Sequence (P12392 whole entry): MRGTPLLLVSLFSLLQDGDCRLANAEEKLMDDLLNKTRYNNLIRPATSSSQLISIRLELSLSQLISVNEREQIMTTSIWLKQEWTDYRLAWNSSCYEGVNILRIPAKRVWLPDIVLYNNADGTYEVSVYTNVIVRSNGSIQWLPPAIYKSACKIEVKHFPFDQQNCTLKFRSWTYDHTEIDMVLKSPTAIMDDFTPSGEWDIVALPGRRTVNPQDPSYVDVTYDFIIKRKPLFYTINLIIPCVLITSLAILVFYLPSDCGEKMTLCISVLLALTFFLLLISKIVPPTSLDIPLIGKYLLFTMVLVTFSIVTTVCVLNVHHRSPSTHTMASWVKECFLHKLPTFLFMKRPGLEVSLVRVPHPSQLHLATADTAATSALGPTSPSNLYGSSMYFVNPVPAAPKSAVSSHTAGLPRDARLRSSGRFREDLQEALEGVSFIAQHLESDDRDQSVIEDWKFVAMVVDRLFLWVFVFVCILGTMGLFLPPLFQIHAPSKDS
PROTOCOL_SUMMARY: Effective concentration in KXalpha-3-beta-4R2 cells expressing rat nicotinic acetylcholine receptor alpha3-beta4 subunits
pEC50: −log10 of the molar value.
MEASUREMENT_LABEL: pEC50

* O=c1cccc2n1C[C@@H]1CNC[C@H]2C1 | 7.60
* O=c1c(Cl)ccc2n1CC1CNCC2C1 (stereo not given) | 8.29
* O=c1c(I)ccc2n1CC1CNCC2C1 (stereo not given) | 9.26
* O=c1c(Br)ccc2n1CC1CNCC2C1 (stereo not given) | 9.06
